Assay: Thermo Scientific Acclaim RSLC 120 C18, 100 × 2.1 mm, 2.2 µm, 30 °C, 0.2 to 0.48 mL/min, estimated dead time 1.1 min; A: 90% water + 10% methanol + 5 mM ammonium acetate; B: methanol + 5 mM ammonium acetate; gradient (min/%B) 0.1/1 3/39 14/99.9 16/99.9
Conditions: stereoisomer not certain
# label = bin(measured LC retention time), where bins are low-valued (below 6 min), mid-valued (6 min to below 8 min), high-valued (8 min or more)

1) C=CC(=O)NC(C)(C)CS(=O)(=O)O: low-valued
2) COc1ccc(-c2ccccc2)cc1NNC(=O)OC(C)C: high-valued
3) Cc1ccc(C(C)NC(=O)C(NC(=O)OC(C)C)C(C)C)cc1 (stereo not drawn): high-valued
4) CNC(=O)Oc1cccc2ccccc12: mid-valued
5) CC1(C)SC2C(NC(=O)C(N)c3ccc(O)cc3)C(=O)N2C1C(=O)O (stereo not drawn): low-valued
6) CCC1OC(=O)C(C)C(OC2CC(C)(OC)C(O)C(C)O2)C(C)C(OC2OC(C)CC(NC)C2O)C(C)(OC)CC(C)C(=O)C(C)C(O)C1(C)O (stereo not drawn): high-valued
7) CCNC1CN(CCCOC)S(=O)(=O)c2sc(S(N)(=O)=O)cc21 (stereo not drawn): low-valued
8) O=C1NC(=O)C2CC=CCC12 (stereo not drawn): low-valued
9) COCCCOc1cc(CC(CC(N)C(O)CC(C(=O)NCC(C)(C)C(N)=O)C(C)C)C(C)C)ccc1OC (stereo not drawn): high-valued
10) CC12C=CC3=C4CCC(=O)C=C4CCC3C1CCC2O (stereo not drawn): high-valued
11) NCC(O)c1ccc(O)cc1 (stereo not drawn): low-valued
12) CC12CCC(O)CC1CCC1C2CCC2(C)C1CCC2(C)O (stereo not drawn): high-valued
13) CCOP(=O)(NC(C)C)Oc1ccc(S(C)(=O)=O)c(C)c1 (stereo not drawn): mid-valued
14) CC(C)N(C(=O)C(=O)O)c1ccccc1: low-valued
15) COc1cc(OC)nc(NC(=O)NS(=O)(=O)c2cc(NC=O)ccc2C(=O)N(C)C)n1: low-valued
16) CCCCNc1cc(C(=O)O)cc(S(N)(=O)=O)c1Oc1ccccc1: mid-valued
17) COC(=O)c1sccc1S(=O)(=O)NC(=O)Nc1nc(C)nc(OC)n1: low-valued
18) c1ccc2[nH]c(-c3cscn3)nc2c1: mid-valued
19) Cc1cccc(Nc2ccncc2S(=O)(=O)NC(=O)NC(C)C)c1: high-valued
20) CCNC(=O)C(C)OC(=O)Nc1ccccc1 (stereo not drawn): mid-valued
21) CNC(=C[N+](=O)[O-])NCCS(=O)Cc1ccc(CN(C)C)o1 (stereo not drawn): low-valued
22) CCc1cnc(C2=NC(C)(C(C)C)C(=O)N2)c(C(=O)O)c1 (stereo not drawn): low-valued

---

Assay: Thermo Scientific Acclaim RSLC 120 C18, 100 × 2.1 mm, 2.2 µm, 30 °C, 0.2 to 0.48 mL/min, estimated dead time 1.1 min; A: 90% water + 10% methanol + 5 mM ammonium acetate; B: methanol + 5 mM ammonium acetate; gradient (min/%B) 0.1/1 3/39 14/99.9 16/99.9
Settings: stereoisomer not certain
Each record is given 1 if its reported LC retention time is strictly below 7 min. Records at or above 7 min are given -1.

1) C=C1CC23CC1(O)CCC2C12C=CC(O)C(C)(C(=O)O1)C2C3C(=O)O (stereo unspecified): 1
2) CCCc1nc2c(C)cc(-c3nc4ccccc4n3C)cc2n1Cc1ccc(-c2ccccc2C(=O)O)cc1: -1
3) CCCC(C)C1(CC)C(=O)NC(=S)NC1=O (stereo unspecified): -1
4) CC(C)(C)c1n[nH]c(=O)n(N)c1=O: 1
